# System: Serum-Lipoproteine
# Test Protocol: Effect on serum lipoproteins (cholesterol in serum and in ultracentrifuge fractions) in rats after 7 days of oral treatment
# Type: in vivo, männlichen Wistar-Ratten
# Run Parameters: Dosis 10 mg/kg/Tag, oral (gavage), 7 days, pooled serum
# Excerpt: Die Wirkung der angeführten Verbindungen auf die Serum- Lipoproteine wurde an männlichen Wistar-Ratten untersucht, die 7 Tage per Schlundsonde mit den angeführten in Polyäthylenglykol 400 suspendierten Verbindungen behandelt wurden. Außerdem wurde eine Kontrollgruppe, die nur das Lösungsmittel Polyäthylenglykol 400 erhielt, mitgeführt, sowie eine Ratten-Gruppe, die zum Vergleich das Standardhypolipidämikum Clofibrat, ebenfalls in Polyäthylenglykol 400 gelöst, erhielt. […]
Reported % Veränderung des Cholesterins gegenüber Kontrolle in der Serum-Lipoprotein-Fraktion LDL by item:
Assay Endpoint: % Veränderung des Cholesterins gegenüber Kontrolle in der Serum-Lipoprotein-Fraktion LDL (%)

{"columns": ["Molecule", "Value Unit", "Meas Value"],
 "data": [
  ["Cc1ccc(S(=O)(=O)N(C=Nc2ccc(Oc3ccccc3)cc2)Cc2ccccc2)cc1 [Beispiel 2]", "%", -22],
  ["Cc1ccc(S(=O)(=O)N(C)C=Nc2c(C)cc(C)cc2C)cc1 [Beispiel 34]", "%", -36],
  ["CCCN(C=Nc1ccc(Oc2ccccc2)cc1)S(=O)(=O)c1ccc(C)cc1 [Beispiel 3]", "%", -22],
  ["CCN(C=Nc1ccc(Sc2ccccc2)cc1)S(=O)(=O)c1ccc(C)cc1 [Beispiel 30]", "%", -27],
  ["Cc1ccc(S(=O)(=O)N(C)C=Nc2ccccc2C)cc1 [Beispiel 37]", "%", -51]
]}
